Target: UniProtKB O14965
Sequence (O14965 whole entry): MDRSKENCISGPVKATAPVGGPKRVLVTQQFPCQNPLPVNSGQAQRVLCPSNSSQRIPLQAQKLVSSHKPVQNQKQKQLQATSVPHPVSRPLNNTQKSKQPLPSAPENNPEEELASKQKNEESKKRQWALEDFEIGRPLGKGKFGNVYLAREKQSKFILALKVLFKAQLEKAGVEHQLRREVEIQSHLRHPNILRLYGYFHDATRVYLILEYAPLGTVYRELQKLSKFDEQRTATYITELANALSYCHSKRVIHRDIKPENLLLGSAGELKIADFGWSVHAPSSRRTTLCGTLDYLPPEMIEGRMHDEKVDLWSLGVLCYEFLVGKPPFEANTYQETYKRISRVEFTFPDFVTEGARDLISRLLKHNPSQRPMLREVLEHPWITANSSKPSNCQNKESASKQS
Assay: Kinase panel profiling at 1 µmol/L (MSA or IMAP), percentage inhibition
Assay type: biochemical
Conditions: AurA kinase assay; 1 µmol/L single concentration; read-out: %-inhibition AurA
Entries and their inhibition at 1 µM
Report only the number, with the unit % understood.

## Input Supply recorded inhibition at 1 µM for FC(F)(F)c1ccc(CNc2ccc(Cc3c[nH]c4ncc(Cl)cc34)cn2)cn1 [pexidartinib] here.
## Output 44

New cases:
## Input Recall and state the measured inhibition at 1 µM for COc1ccc(CN2C3CC2CN(c2ccc(-c4cc(OCC(C)(C)O)cn5ncc(C#N)c45)cn2)C3)cn1 [selpercatinib] .
## Output 66

## Input Please indicate inhibition at 1 µM recorded for Cn1cnc2c(F)c(Nc3ccc(Br)cc3Cl)c(C(=O)NOCCO)cc21 [selumetinib]
## Output -5.67

## Input Tell me measured inhibition at 1 µM for C=CC(=O)N1CCC([C@@H]2CCNc3c(C(N)=O)c(-c4ccc(Oc5ccccc5)cc4)nn32)CC1 [zanubrutinib] please.
## Output -1.42

## Input # return recorded inhibition at 1 µM for input Cc1nc(NC(=O)N2CCC[C@H]2C(N)=O)sc1-c1ccnc(C(C)(C)C(F)(F)F)c1 [alpelisib]
## Output -0.801

## Input Give the value of inhibition at 1 µM reported for the following: COC(=O)N[C@@H](C)CNc1nccc(-c2cn(C(C)C)nc2-c2cc(Cl)cc(NS(C)(=O)=O)c2F)n1 [encorafenib]
## Output 0.211

## Input Return reported inhibition at 1 µM. Input compound: O=C(Nc1cnn2ccc(N3CCC[C@@H]3c3cc(F)ccc3F)nc12)N1CC[C@H](O)C1 [larotrectinib]
## Output -4.5

## Input Report inhibition at 1 µM, nothing else, for this compound: Cn1cc(-c2cc3c(N4CCN(c5ncc([C@@](C)(N)c6ccc(F)cc6)cn5)CC4)ncnn3c2)cn1 [avapritinib]
## Output 4.62

###

The entries below come with measured inhibition at 1 µM values attached.
Target: panel of 255 wild-type kinases (Homo sapiens)
Assay: Kinase panel profiling at 1 µmol/L (MSA or IMAP), percentage inhibition
Assay type: biochemical
Conditions: kinase TRKB; 1 µmol/L single concentration; read-out: %-inhibition at 1 µmol/L, TRKB
Reply with just the number (in %).

## Input // fetch inhibition at 1 µM given entry O=C(Nc1cnn2ccc(N3CCC[C@@H]3c3cc(F)ccc3F)nc12)N1CC[C@H](O)C1 [larotrectinib]
## Output 102

## Input Item COc1cc2ncnc(Nc3ccc(F)c(Cl)c3)c2cc1NC(=O)/C=C/CN1CCCCC1 [dacomitinib] : provide inhibition at 1 µM
## Output 6

## Input State, in one line, measured inhibition at 1 µM of CCc1nc(C(N)=O)c(Nc2ccc(N3CCC(N4CCN(C)CC4)CC3)c(OC)c2)nc1NC1CCOCC1 [gilteritinib]
## Output 98

Lab note: next compound to report on.
## Input Identify inhibition at 1 µM associated with the compound COC(=O)N[C@@H](C)CNc1nccc(-c2cn(C(C)C)nc2-c2cc(Cl)cc(NS(C)(=O)=O)c2F)n1 [encorafenib]
## Output 7.42

###

Tested on: 134 cancer cell lines
Assay: Cell viability assay (ATPlite, 72 hours), IC50 on cancer cell line panel
Details: Rh30, read-out: IC50 in cell proliferation assay
pIC50 listing for selected molecules.
Quick note: pIC50 means taking -log10 of the concentration in moles per liter.

## Input Give a short answer stating reported pIC50 for C[C@@H](Oc1cc(-c2cnn(C3CCNCC3)c2)cnc1N)c1c(Cl)ccc(F)c1Cl .
## Output 5.80

Next:
## Input Identify measured pIC50 associated with C[C@H]1Oc2cc(cnc2N)-c2c(nn(C)c2C#N)CN(C)C(=O)c2ccc(F)cc21
## Output 5.04
